Experiment: CD69 Whole Blood Assay (CD69 Hu Blood FACS)
Type: cell-based, human
Details: Lymphocyte; human whole blood, anti-IgM activated B lymphocytes, FACS; IC70; Table 2 (unit inferred); read-out: CD69 Hu Blood FACS (IC70)
outcome.measure: IC70

>>> endpoint_value("CC(=O)N1CCn2nc(Nc3cc(-c4ccnc(-n5ncc6c7c(sc6c5=O)CCCC7)c4CO)cn(C)c3=O)cc2C1")
"145 nM"
>>> endpoint_value("CC(=O)N1CCn2nc(Nc3cc(-c4ccnc(N5CCc6c(sc7c6CC(C)(C)C7)C5=O)c4CO)cn(C)c3=O)cc2C1")
"37.3 nM"
>>> endpoint_value("CN1Cc2cc(Nc3cc(-c4ccnc(N5CCc6c(sc7c6CC(C)(C)C7)C5=O)c4CO)cn(C)c3=O)nn2CC1=O")
"58.6 nM"
>>> endpoint_value("Cn1cc(-c2ccnc(N3CCn4c(cc5c4CCCC5)C3=O)c2CO)nc(Nc2ccc(N3CCN(C4COC4)CC3)nc2)c1=O")
"2300 nM"
>>> endpoint_value("CNC(=O)c1c(-c2cc(Nc3ccc(N4CCN(C5COC5)C[C@@H]4C)cn3)c(=O)n(C)c2)ccnc1N1CCn2c(cc3c2CC(C)(C)C3)C1=O")
"2100 nM"
>>> endpoint_value("C[C@H]1COCCN1C(=O)c1ccc(Nc2cc(-c3ccnc(N4CCn5c(cc6c5CC(C)(C)C6)C4=O)c3CO)nn(C)c2=O)nc1")
"80 nM"

* * *

Recorded IC70, one value per entry.
Assay: CD69 Whole Blood Assay (CD69 Hu Blood FACS)
Type: cell-based, human
Details: Lymphocyte; human whole blood, anti-IgM activated B lymphocytes, FACS; IC70; Table 2 (unit inferred); read-out: CD69 Hu Blood FACS (IC70)
outcome.measure: IC70 (nM)

>>> endpoint_value("C[C@H]1CN(C2COC2)CCN1c1ccc(Nc2cc(-c3ccnc(N4CCn5c(cc6c5CC(C)(C)C6)C4=O)c3C(N)=O)cn(C)c2=O)nc1")
914
>>> endpoint_value("CN1CC(Oc2ccc(Nc3cc(-c4ccnc(N5CCn6c(cc7c6CC(C)(C)C7)C5=O)c4CO)cn(C)c3=O)nc2)C1")
41.4
>>> endpoint_value("Cn1cc(-c2ccnc(N3CCn4c(cc5c4CC(C)(C)C5)C3=O)c2CO)cc(Nc2ccc(C3CN(C4COC4)C3)cn2)c1=O")
34
>>> endpoint_value("C[C@H]1COCCN1C(=O)c1ccc(Nc2cc(-c3ccnc(N4CCn5c(cc6c5CC(C)(C)C6)C4=O)c3CO)cn(C)c2=O)nc1")
21.6
>>> endpoint_value("Cn1cc(-c2ccnc(N3CCn4c(cc5c4CCCC5)C3=O)c2CO)cc(Nc2cc3n(n2)CCNC3)c1=O")
114
>>> endpoint_value("CCc1nccc(Nc2cc(-c3ccnc(N4CCn5c(cc6c5CC(C)(C)C6)C4=O)c3CO)cn(C)c2=O)n1")
583

* * *

Recorded IC70, one value per entry.
Assay: CD69 Whole Blood Assay (CD69 Hu Blood FACS)
Type: cell-based, human
Details: Lymphocyte; human whole blood, anti-IgM activated B lymphocytes, FACS; IC70; Table 2 (unit inferred); read-out: CD69 Hu Blood FACS (IC70)
outcome.measure: IC70 (nM)

>>> endpoint_value("Cn1cc(-c2ccnc(N3CCn4c(cc5c4CC(C)(C)C5)C3=O)c2CO)nc(Nc2ccc3nccn3c2)c1=O")
3300
>>> endpoint_value("Cn1cc(-c2ccnc(N3CCn4c(cc5c4CC(C)(C)C5)C3=O)c2CO)cc(Nc2ccon2)c1=O")
167
>>> endpoint_value("Cn1ccc(Nc2cc(-c3ccnc(N4CCn5c(cc6c5CC(C)(C)C6)C4=O)c3CO)cn(C)c2=O)n1")
113
>>> endpoint_value("COCCN1CCn2nc(Nc3cc(-c4cncc(N5CCn6c(cc7c6CC(C)(C)C7)C5=O)c4CO)cn(C)c3=O)cc2C1")
12.4
>>> endpoint_value("Cc1cc(Nc2cc(-c3ccnc(N4CCc5c(c(F)c6n5CCCC6)C4=O)c3CO)cn(C)c2=O)nn1C")
2900
>>> endpoint_value("Cn1nc(-c2ccnc(-n3ncc4c5c(sc4c3=O)CCCC5)c2CO)cc(Nc2ccc(C(=O)N3CCOCC3)cn2)c1=O")
646
>>> endpoint_value("Cc1cc(Nc2cc(-c3ccnc(N4CCn5c(cc6c5CC(C)(C)C6)C4=O)c3CO)cn(C)c2=O)no1")
143
>>> endpoint_value("C[C@H]1CN(C2COC2)CCN1c1ccc(Nc2cc(-c3ccnc(-n4ccc5c(cc6n5CCCC6)c4=O)c3CO)cn(C)c2=O)nc1")
65
>>> endpoint_value("COCCN1CCN(c2ccc(Nc3cc(-c4ccnc(N5CCn6c(cc7c6CC(C)(C)C7)C5=O)c4CO)cn(C)c3=O)nc2)[C@@H](C)C1")
20.7
>>> endpoint_value("Cn1cc(-c2ccnc(N3CCn4c(cc5c4CC(C)(C)C5)C3=O)c2CO)cc(Nc2ccc(C3CC3)cn2)c1=O")
3200
>>> endpoint_value("COC[C@@H](C)N1CCn2nc(Nc3cc(-c4ccnc(N5CCn6c(cc7c6CC(C)(C)C7)C5=O)c4CO)cn(C)c3=O)cc2C1")
24
>>> endpoint_value("Cn1cc(-c2ccnc(N3CCn4c(cc5c4CC(C)(C)C5)C3=O)c2CO)cc(Nc2cc(C3CC3)on2)c1=O")
158
>>> endpoint_value("CN1CC(c2ccc(Nc3cc(-c4ccnc(N5CCc6c(cc7n6CCCC7)C5=O)c4CO)cn(C)c3=O)nc2)C1")
138
>>> endpoint_value("Cc1nccc(Nc2cc(-c3cncc(N4CCn5c(cc6c5CC(C)(C)C6)C4=O)c3CO)cn(C)c2=O)n1")
457

Ref: patent US10045983B2
